- Test system: NCI-H23
- Assay summary: Cytotoxicity against human NCI-H23 cells assessed as growth inhibition at 10 uM after 48 hrs by SRB assay relative to control
- Assay type: functional
- Test settings: NCI-H23, 48 h, read-out: GI
Property name: inhibition of growth at 10 µM (%)
Reply with just the number (in %).

Example results:
(Q) Query for NCI-H23: what inhibition of growth at 10 µM does the record show for "O=c1oc2cc(NCCO)ccc2cc1-c1nc2ccccc2[nH]1" ?
(A) 32.9

(Q) Identify the measured inhibition of growth at 10 µM of "O=c1[nH]cc(F)c(=O)[nH]1" for NCI-H23.
(A) 39

Could you now look at the following compound, please?
(Q) Identify the measured inhibition of growth at 10 µM of "CN1CCN(c2ccc3cc(-c4nc5ccccc5[nH]4)c(=O)oc3c2)CC1" for NCI-H23.
(A) 25.5

----------
Catalogue of compounds with associated inhibition of growth at 10 µM
- Tested on: SN12C
- Assay summary: Cytotoxicity against human SN12C cells assessed as growth inhibition at 10 uM after 48 hrs by SRB assay relative to control
- Format: functional
- Test settings: read-out: GI

Use these answered entries as a reference point.
(Q) Bench note: what inhibition of growth at 10 µM did "O=c1oc2cc(N3CCOCC3)ccc2cc1-c1nc2ccccc2[nH]1" show?
(A) < 20%

(Q) Requested field: inhibition of growth at 10 µM. Item: "O=c1[nH]cc(F)c(=O)[nH]1"
(A) 54%

(Q) Entry "CN1CCN(c2ccc3cc(-c4nc5ccccc5[nH]4)c(=O)oc3c2)CC1" has what inhibition of growth at 10 µM?
(A) < 20%

(Q) Need inhibition of growth at 10 µM, item "O=c1oc2cc(NCCN3CCOCC3)ccc2cc1-c1nc2ccccc2[nH]1"
(A) < 20%

(Q) Any idea what inhibition of growth at 10 µM was measured for "NCCNc1ccc2cc(-c3nc4ccccc4[nH]3)c(=O)oc2c1" ?
(A) < 20%

Further cases:
(Q) Can you look up the measured inhibition of growth at 10 µM of "O=c1oc2cc(Br)ccc2cc1-c1nc2ccccc2[nH]1" for me?
(A) < 20%

(Q) Looking for the measured inhibition of growth at 10 µM of "O=c1oc2cc(NCCO)ccc2cc1-c1nc2ccccc2[nH]1" , can you help?
(A) 22.4%

----------
- Test system: HCT-116
- Assay summary: Cytotoxicity against human HCT116 cells assessed as growth inhibition at 10 uM after 48 hrs by SRB assay relative to control
- Type: functional
- Test settings: HCT-116, 48 h, read-out: GI
Property name: inhibition of growth at 10 µM

Here is how some compounds turned out for inhibition of growth at 10 µM.
(Q) For the record "O=c1oc2cc(Br)ccc2cc1-c1nc2ccccc2[nH]1" , what value of inhibition of growth at 10 µM is listed for HCT-116?
(A) < 20%

(Q) Form field - read-out: inhibition of growth at 10 µM; system: HCT-116; submitted item: "O=c1oc2cc(N3CCOCC3)ccc2cc1-c1nc2ccccc2[nH]1"
(A) < 20%

---
(Q) # returns recorded inhibition of growth at 10 µM (system: HCT-116) for "NCCNc1ccc2cc(-c3nc4ccccc4[nH]3)c(=O)oc2c1"
(A) < 20%

(Q) Request body: readout inhibition of growth at 10 µM, system HCT-116, query "O=c1oc2cc(NCCO)ccc2cc1-c1nc2ccccc2[nH]1" . Return the value.
(A) 62.2%

(Q) Find the measured inhibition of growth at 10 µM: item "CN1CCN(c2ccc3cc(-c4nc5ccccc5[nH]4)c(=O)oc3c2)CC1" , target or system HCT-116.
(A) < 20%

(Q) Tell me reported inhibition of growth at 10 µM for O=c1[nH]cc(F)c(=O)[nH]1 [FLUOROURACIL] , tested with HCT-116.
(A) 17.8%

(Q) Recall the recorded inhibition of growth at 10 µM for "O=c1oc2cc(NCCN3CCOCC3)ccc2cc1-c1nc2ccccc2[nH]1" with HCT-116 and state it.
(A) < 20%
